- measurement notes: Spectroscopic data (absorption, emission, fluorescence quantum yield) in CH3CN
- Assay type: physicochemical
- details: complexes: Zn(ClO4)2 10 equiv.
Here, each record is paired with measured λem data.

compound	λem, nm
COCCCNc1cc2c3c(c(NCCOc4ccc(/C=C/c5ccc(-c6ccc(COCCOCCOC)cn6)nc5)cc4)cc4c3c1C(=O)N(CCCOC)C4=O)C(=O)N(CCCOC)C2=O [Compound (4)]	633
COCCCN1C(=O)c2cc(NCCOc3ccc(/C=C/c4ccc(-c5ccc(COCCOCCOC)cn5)nc4)cc3)c3c4c(cc(NCCCCC[P+](c5ccccc5)(c5ccccc5)c5ccccc5)c(c24)C1=O)C(=O)N(CCCOC)C3=O.I.[Zn+2] [[Zn(5)]^2+]	633
COc1ccc(/C=C/c2ccc(-c3ccc(C)cn3)nc2)cc1 [(1)]	428
COCCCN1C(=O)c2cc(NCCOc3ccc(/C=C/c4ccc(-c5ccc(COCCOCCOC)cn5)nc4)cc3)c3c4c(cc(NCCCCC[P+](c5ccccc5)(c5ccccc5)c5ccccc5)c(c24)C1=O)C(=O)N(CCCOC)C3=O.[I-] [Compound (5)]	633
COCCCNc1cc2c3c(c(NCCCOC)cc4c3c1C(=O)N(CCCOC)C4=O)C(=O)N(CCCOC)C2=O [Compound (2)]	638
COCCCNc1cc2c3c(c(NCCOc4ccc(/C=C/c5ccc(-c6ccc(COCCOCCOC)cn6)nc5)cc4)cc4c3c1C(=O)N(CCCOC)C4=O)C(=O)N(CCCOC)C2=O.[Zn+2] [[Zn(4)]^2+]	633
COCCCNc1cc2c3c(c(NCCCCC[P+](c4ccccc4)(c4ccccc4)c4ccccc4)cc4c3c1C(=O)N(CCCOC)C4=O)C(=O)N(CCCOC)C2=O [Compound (3)]	639
